Sourced from the supplement of paper PMC9844399

# System: HeLa;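 note: Hoechst-stained nuclei counted by automated confocal imaging of four fields per well in 384-well plates, with the robust Z-score based on the per-plate DMSO median and robust SD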
# EXPERIMENTAL_DETAILS: nuclear count per well, robust Z-score vs DMSO; higher = more cells (less toxicity)
# CONDITION_PARAMETERS: 10 µM; 6 h
Measured nuclear count per well accompanies every entry in the list below.

COMPOUND	nuclear count per well
CNC(=O)[C@H]1O[C@@H](n2cnc3c(NCc4cccc(I)c4)ncnc32)[C@H](O)[C@@H]1O	-1.23
[Cl-].[Li+] [Lithium Chloride]	0.96
COc1ccc(Cl)cc1C(=O)NCCc1ccc(S(=O)(=O)NC(=O)NC2CCCCC2)cc1 [Glyburide]	-0.179
CC(C)(C)NCC(O)COc1cccc2c1CC(O)C(O)C2 (stereo not given)	0.0514
C/C=C/C/C=C/CCC(=O)[C@H]1O[C@H]1C(N)=O	-1.33
